Catalogue of molecules with associated T/C
# Test system: P388 leukemia ip, CD2F1 mice, survival T/C
# experiment.description: NCI In Vivo Anticancer Drug Screen. Data for tumor model P388 Leukemia (intraperitoneal) in CD2F1 (CDF1) mice
# measurement.setup: endpoint: median survival time; dose: 100.0 mg/kg/injection; schedule: Q01DX009 (ip); vehicle: saline with Tween-80; higher = longer survival
Inconclusive results and toxic doses are left out.

1. Cc1ccccc1CC(C)c1ccccc1 (stereo unspecified) ... 123 % of control

query: Endpoint output: T/C of OC(CN1CCCC2CCCCC21)c1cc2ccccc2c2ccccc12 (stereo unspecified) . Value?
result: 108 % of control

query: "CCc1cccc(CC)c1NC(=S)NC(=O)c1ccccc1" , same question.
result: 96 % of control

query: "CCOC(=O)c1nc2c(N)nc(-c3ccccc3)nc2[nH]c1=O" , same question.
result: 92 % of control

###

# Test system: P388 leukemia ip, CD2F1 mice, survival T/C
# experiment.description: NCI In Vivo Anticancer Drug Screen. Data for tumor model P388 Leukemia (intraperitoneal) in CD2F1 (CDF1) mice
# measurement.setup: endpoint: median survival time; dose: 200.0 mg/kg/injection; schedule: Q01DX005 (ip); vehicle: Klucel (hydroxypropylcellulose) (HPC); higher = longer survival
Toxic doses and inconclusive results are not listed.
Catalogue of molecules with associated T/C

Below are worked cases with known answers.
1. Cc1cc([O-])c([I+]c2ccccc2)c(=O)[nH]1 ... 102 % of control
2. CC(C)(C)OC(=O)NC(Cc1ccc(O)cc1)C(=O)ON1C(=O)CCC1=O (centres undefined) ... 108 % of control
3. O=C1CC(N2CCCC2)=Nc2ccccc2N1 ... 103 % of control

Kindly consider the entry below.
query: Endpoint output: T/C of CC(=O)C1CCC2C3CC4OCC5(CCC(O)CC45Br)C3CCC12C (centres undefined) . Value?
result: 101 % of control

###

Catalogue of compounds with associated T/C
# Tested on: P388 leukemia ip, CD2F1 mice, survival T/C
# experiment.description: NCI In Vivo Anticancer Drug Screen. Data for tumor model P388 Leukemia (intraperitoneal) in CD2F1 (CDF1) mice
# measurement.setup: endpoint: median survival time; dose: 25.0 mg/kg/injection; schedule: Q01DX009 (ip); vehicle: other; higher = longer survival
Inconclusive results and toxic doses are left out.

Below are worked cases with known answers.
1) COC(=O)C1C(C)(C)N=NC1(C)C ... 115 % of control
2) CC1=C(C#N)C(C)(CCl)C(C#N)=C(C)N1C ... 96 % of control
3) Cc1ccc2c(O)c3c(cc2c1)C(=O)c1c2c(cc(O)c1C3=O)C1(C)OC(O2)C(O)C(N(C)C)C1O (centres undefined) ... 97 % of control

Kindly consider the entry below.
query: Entry "COc1c2c(c(OC)c3c(OC)c4ccccc4c(OC)c13)CC(=O)CC2" , system P388 leukemia ip, CD2F1 mice, survival T/C: what T/C was measured?
result: 91 % of control

###

# Test system: P388 leukemia ip, CD2F1 mice, survival T/C
# experiment.description: NCI In Vivo Anticancer Drug Screen. Data for tumor model P388 Leukemia (intraperitoneal) in CD2F1 (CDF1) mice
# measurement.setup: endpoint: median survival time; dose: 10.0 mg/kg/injection; schedule: Q01DX009 (ip); vehicle: saline with Tween-80; higher = longer survival
Toxic doses and inconclusive results are not listed.
Catalogue of molecules with associated T/C

1. [B-][N+]1(C)CC[N+]([B-])(C)CC1 (stereo unspecified) ... 95 % of control
2. COc1cc(O)c(C/C=C/c2ccccc2)cc1O ... 103 % of control
3. O=C1C=CC(=Nc2ccccc2)O1 ... 95 % of control
4. CCn1c2ccccc2c2cc(N=Nc3cc[n+]([O-])c4c(O)cccc34)ccc21 ... 102 % of control
5. COc1cc2c3c(c1O)-c1cc4c(cc1CC3N(C)CC2)OCO4 (stereo unspecified) ... 102 % of control

Kindly consider the entry below.
query: Endpoint output: T/C of "CC(C)(c1ccccc1)[N+](C)(C)C" . Value?
result: 104 % of control
